# testedOn: T1, recombinant human TROP2 extracellular domain (aa 1-274) comprising His tag (human, UniProt P09758 27-274)
# T1 construct: Used here for all assays on recombinant human TROP2 (ELISA, immunoblot, SPR, crystal), although only some of them name the catalogue number; also called human recombinant TROP2; recombinant human TROP2 protein; not shown: His tag
# T1 sequence: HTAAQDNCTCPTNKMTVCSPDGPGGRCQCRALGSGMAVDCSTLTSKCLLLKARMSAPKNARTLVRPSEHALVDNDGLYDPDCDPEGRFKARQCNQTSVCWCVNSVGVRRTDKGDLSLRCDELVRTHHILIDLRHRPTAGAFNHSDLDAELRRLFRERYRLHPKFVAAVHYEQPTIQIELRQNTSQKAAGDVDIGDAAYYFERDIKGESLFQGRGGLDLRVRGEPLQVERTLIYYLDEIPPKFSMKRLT
# experimentalDetails: competitive ELISA on coated recombinant human TROP2, competitor KD003-His (14285.7 pM per text), anti-His-HRP
reportedMetric: IC50 (read off the curve)

Below, 2 binders whose answers are already recorded.
binder: KD001 (antibody, human IgG1, V domains shown, also called anti-TROP2 sdAb KD001) VH: QVQLQESGGGMVHPGGSLRLSCAASGFTFSGSDMSWVRQAPGKGPEWVSYITSGGTTYYPDSVKGRFTISRDNAKNTLYLQMNSLTPDDTALYRCAKARLTDSHYVEDAWGQGTQVTVSS
reportedMetric: IC50 (read off the curve)
measured: ~40 nM
--
binder: KD004 (antibody, human IgG1, V domains shown, also called anti-TROP2 sdAb KD004) VH: QVQLQESGGGLVQPGRSLRLSCAASGFTFSGSDMSWVRQAPGKGPEWVSYITGSGTTYYPDSVKGRFTTSRDNAKNMLYLQMNSLKPDDTALYRCAKARLTDSHYVEDAWGQGTQVTVSS
reportedMetric: IC50 (read off the curve)
measured: ~40 nM

Would you kindly look at the next entry?
Exam item: Param item = KD002 (antibody, human IgG1, V domains shown, also called anti-TROP2 sdAb KD002) VH: QVQLQESGGGMVQVGGSLRLSCAASGFPFSSADMSWVRQAPGKGPEWVSYINADGSKTYYPDSVKGRFTISRDNAKNTLYLLMNNLKPEDTALYRCARAKLTDTHYVEDYWGQGTQVTVSS ; retrieve measured IC50 (read off the curve).
Marked response: ~60 nM
